Answer each item with its documented self-cleavage.
B1: OR4K15 (parent)
chain: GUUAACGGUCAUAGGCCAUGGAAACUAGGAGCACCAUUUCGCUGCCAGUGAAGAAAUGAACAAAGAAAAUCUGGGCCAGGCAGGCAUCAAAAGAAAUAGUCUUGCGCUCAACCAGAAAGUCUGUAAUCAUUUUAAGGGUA

variants of: B1; experiment: self-cleavage, relative activity (ratio to wild type); higher = more cleavage; in vitro, sequencing; the parent is a self-cleaving ribozyme
Numbers only.

• A13U A36G = 0.89

Give self-cleavage for each listed item.
1. A95C G137U
2. A62U A64U

[1.17, 1.06]
